Reported APOE RNA (% control) Spinal Cord values are given for each entry in this list.
- Tested on: human APOE RNA
- ASSAY_COMMENT: Activity in APOE C57BL/6NTac-Apoeem7250 knock-in mice, single ICV bolus, 20 weeks (Example 13)
- Type: in vivo
- SETTINGS: spinal cord; single ICV bolus 300 μg; 20 weeks post treatment; normalized to mouse Ppia
- Procedure: Modified oligonucleotides described above were tested in the APOE C57BL/6NTac-Apoeem7250 knock-in mouse model described above. APOE C57BL/6NTac-Apoeem7250 knock-in mice were divided into groups of 4 mice each. […] Twenty weeks post treatment, mice were sacrificed and RNA was extracted from cortical brain tissue and spinal cord for quantitative real-time RT-PCR analysis of RNA expression of APOE using human primer probe set RTS3073 (described herein above). […]
Marks after values point to notes of the source that are not given here. Strand notation (5' to 3'): a small letter for the sugar, then the base; units joined by * are phosphorothioate-linked, units joined directly phosphodiester-linked; [ ] holds rarer units or linkages, { } end groups; capitals alone tell only the bases. [ms] = mesyl phosphoramidate linkage; e = 2'-O-(2-methoxyethyl) (MOE); k = constrained ethyl (cEt); [5mC] = 5-methylcytosine; d = 2'-deoxy (DNA)

SUBSTANCE: 1779706 (e[5mC]*eTeTkGkG*dT[ms]dG[ms]dA[ms]dA*dT*d[5mC]*dT*dT*dT*dA*dT*eT*eA*eA*eA; antisense) [Compound 1779706]
APOE RNA (% control) Spinal Cord: 36 % control
--
SUBSTANCE: 1757541: mixed MOE/cEt gapmer TTGGTGAATCTTTATTAA, sugar eeeekddddddddeeeee, linkages soossssssssssooss (eT*eTeGeG*kT*dG*dA*dA*dT*d[5mC]*dT*dT*dT*eAeTeT*eA*eA) [compound 1757541]
APOE RNA (% control) Spinal Cord: 80 % control
--
SUBSTANCE: 1757581 (eT*eTeGeGkT*dG*dA*dA*dT*d[5mC]*dT*dT*dT*dA*dT*eTeAeA*eA*e[5mC]; antisense) [Compound 1757581]
APOE RNA (% control) Spinal Cord: 75 % control
--
SUBSTANCE: 1757563: mixed MOE/cEt gapmer TTGGTGAATCTTTATTAA, sugar eeeekddddddddkekee, linkages soossssssssssooss (eT*eTeGeG*kT*dG*dA*dA*dT*d[5mC]*dT*dT*dT*kAeTkT*eA*eA) [compound 1757563]
APOE RNA (% control) Spinal Cord: 71 % control
--
SUBSTANCE: ^mCksTksTksGdzGdzTdzGdzAdzAdzTds^mCdsTdsTdsTdsAdsTdsTksAksAdzAk (antisense k[5mC]*kT*kT*dG[ms]dG[ms]dT[ms]dG[ms]dA[ms]dA[ms]dT*d[5mC]*dT*dT*dT*dA*dT*kT*kA*dA[ms]kA) [Compound No. 1785602]
APOE RNA (% control) Spinal Cord: 28 % control
--
SUBSTANCE: 1785588 (k[5mC]*kT*kT*dG[ms]dG[ms]dT[ms]dG*dA*dA[ms]dT[ms]d[5mC]*dT*dT*dT*dA*dT*kT*kA*dA[ms]kA; antisense) [Compound 1785588]
APOE RNA (% control) Spinal Cord: 18 % control
--
SUBSTANCE: 1785619 (k[5mC]*dT[ms]dT[ms]kG*dG[ms]kT*dG*dA[ms]dA[ms]dT*d[5mC]*dT*dT*dT*dA[ms]dT*kT*kA*dA[ms]kA) [Compound 1785619]
APOE RNA (% control) Spinal Cord: 59 % control
--
SUBSTANCE: 1779699 (e[5mC]*eTeT*kG*kG*eT*dG[ms]dA[ms]dA[ms]dT*d[5mC]*dT*dT*dT*dA[ms]dT*eT*eA*eA*eA; antisense) [Compound 1779699]
APOE RNA (% control) Spinal Cord: 25 % control
--
SUBSTANCE: 1778112 (eA*e[5mC]eTeTeGkG*dT*dG[ms]dA[ms]dA*dT*d[5mC]*dT*dT*dT*dA[ms]eTeT*eA*eA; antisense) [Compound 1778112]
APOE RNA (% control) Spinal Cord: 25 % control
--
SUBSTANCE: 1785591 (k[5mC]*kT*kT*dG[ms]dG[ms]dT[ms]dG*dA*dA*dT*d[5mC]*dT[ms]dT[ms]dT*dA*dT*kT*kA*dA[ms]kA; antisense) [Compound 1785591]
APOE RNA (% control) Spinal Cord: 42 % control
--
SUBSTANCE: 1778117 (eA*e[5mC]eTeTeG*eG*dT*dG[ms]dA[ms]dA*dT*d[5mC]*dT*dT*dT*dA[ms]kT*eT*eA*eA; antisense) [Compound 1778117]
APOE RNA (% control) Spinal Cord: 36 % control
--
SUBSTANCE: 1778154: modified oligonucleotide complementary to human APOE RNA (e[5mC]*eT*eTeGeGeT*dG[ms]dA[ms]dA*dT*d[5mC]*dT*dT*dT*dA*dT*kTkAeA*eA; antisense) [compound 1778154]
APOE RNA (% control) Spinal Cord: 46 % control
--
SUBSTANCE: 1757554: mixed MOE/cEt gapmer TTGGTGAATCTTTATTAA, sugar kkeeeddddddddeeeee, linkages soossssssssssooss (kT*kTeGeG*eT*dG*dA*dA*dT*d[5mC]*dT*dT*dT*eAeTeT*eA*eA) [compound 1757554]
APOE RNA (% control) Spinal Cord: 68 % control
--
SUBSTANCE: 1736526: 6-10-4 MOE gapmer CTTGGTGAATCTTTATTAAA, linkages ssoooszzsssssssssss (e[5mC]*eT*eTeGeGeT*dG[ms]dA[ms]dA*dT*d[5mC]*dT*dT*dT*dA*dT*eT*eA*eA*eA) [compound 1736526]
APOE RNA (% control) Spinal Cord: 68 % control
--
SUBSTANCE: 1757564: mixed MOE/cEt gapmer TTGGTGAATCTTTATTAA, sugar eeeekddddddddkeeke, linkages soossssssssssooss (eT*eTeGeG*kT*dG*dA*dA*dT*d[5mC]*dT*dT*dT*kAeTeT*kA*eA) [compound 1757564]
APOE RNA (% control) Spinal Cord: 69 % control
--
SUBSTANCE: 1757584 (eT*eTeGeGeT*dG*dA*dA*dT*d[5mC]*dT*dT*dT*dA*dT*kTkAeA*eA*e[5mC]; antisense) [Compound 1757584]
APOE RNA (% control) Spinal Cord: 95 % control
--
SUBSTANCE: 1778130: modified oligonucleotide complementary to human APOE RNA (eA*e[5mC]eTeTeG*kG*dT*dG[ms]dA[ms]dA*dT*d[5mC]*dT*dT*dT*dA[ms]kTkT*eA*eA; antisense) [compound 1778130]
APOE RNA (% control) Spinal Cord: 19 % control
--
SUBSTANCE: 1757565 (eA*e[5mC]eTeTkG*dG*dT*dG*dA*dA*dT*d[5mC]*dT*dT*dT*eAeTeT*eA*eA; antisense) [Compound 1757565]
APOE RNA (% control) Spinal Cord: 73‡ % control
--
SUBSTANCE: 1779961 (e[5mC]*eTeT*kG[ms]kG*eT*dG[ms]dA[ms]dA[ms]dT*d[5mC]*dT*dT*dT*dA[ms]dT*eT*eA*eA*eA; antisense) [Compound 1779961]
APOE RNA (% control) Spinal Cord: 26 % control
